system: MCF7 breast; assay: NCI-60 one-dose screen, 48 h (100 = growth as untreated, 0 = no growth, -100 = all killed); settings: 10 µM
This is part of a sample that, as a whole, favours compounds with a hit. Of some 83,000 tested, about 20% had one in any assay.
growth under 50% gets Yes, anything at or over 50% gets No.

Incoming: growth strictly < 50% for this compound? "COc1cc(/C=C/c2cc(/C=C/c3ccc(O)c(OC)c3)[nH]c(=O)n2)ccc1O"
Outgoing: No

Incoming: Okay, and CCN(CC)CCCC(C)Nc1c2ccc(Cl)cc2nc2ccc(OC)cc12 (stereo not drawn) ?
Outgoing: Yes

Incoming: Okay, and COc1cc(/C=C2\CCCC3=C2NC(N)=NC3c2cc(OC)c(OC)c(OC)c2)cc(OC)c1OC (stereo not drawn) ?
Outgoing: Yes

Incoming: Okay, and CC(=O)O[C@@]12CO[C@@H]1C[C@H](O)[C@@]1(C)C(=O)[C@H](O)C3=C(C)[C@@H](OC(=O)[C@H](O)[C@@H](NC(=O)OC(C)(C)C)c4ccccc4)C[C@@](O)([C@@H](OC(=O)c4ccccc4)C12)C3(C)C (stereo partly drawn) ?
Outgoing: Yes

Incoming: Okay, and "NS(=O)(=O)Oc1ccc2c(ccn2C(=O)C23CC4CC(CC(C4)C2)C3)c1" ?
Outgoing: No

Incoming: Okay, and "O[C@@H]1CO[C@H]2[C@@H]1OC[C@@H]2O" ?
Outgoing: No

Incoming: Okay, and "COc1cc(-c2nn(-c3ccc(NC(=O)NCCNS(=O)(=O)c4ccc(F)cc4)cc3)cc2-c2ccncc2)ccc1Cl" ?
Outgoing: Yes

Incoming: Okay, and "COc1ccc(-c2nn(-c3cccc(Cl)c3)cc2-c2cc(-c3ccccc3)[nH]c(=O)c2C#N)cc1" ?
Outgoing: No

---

system: K-562 leukemia; assay: NCI-60 one-dose screen, 48 h (100 = growth as untreated, 0 = no growth, -100 = all killed); settings: 10 µM
Compounds without any hit were thinned out: in the full panel of roughly 83,000, 20% have a hit.
growth under 20% gets Met, anything at or over 20% gets Not met.

Incoming: growth strictly < 20% for this compound? "Cc1cc(SC#N)cc(C(C)(C)C)c1O"
Outgoing: Not met

Incoming: Okay, and "O=C(CCCCNC(=O)c1nc(-c2ccccc2)n(-c2ccccc2)n1)NO" ?
Outgoing: Not met

Incoming: Okay, and COc1ccc(/C=C2\CCCC3=C2NC(N)=NC3c2ccc(OC)c(OC)c2)cc1OC (stereo not given) ?
Outgoing: Not met

Incoming: Okay, and "COc1cc(-c2csc(NC(=O)Nc3ccc(Cl)c(C(F)(F)F)c3)n2)cc(OC)c1OC" ?
Outgoing: Met

Incoming: Okay, and "COc1ccc(Cl)cc1Nc1nc(C(F)(F)F)ccc1C(=O)N/N=C/c1cc(OC)c(OC)c(OC)c1" ?
Outgoing: Not met

Incoming: Okay, and "CCn1cc(CNc2ccc(C(=O)Nc3ccc4ccccc4c3)cc2)c(C)n1" ?
Outgoing: Not met

Incoming: Okay, and COc1ccc2c(c1)OC(N)=C(C#N)C2c1cc(OC)c(OC)c(OC)c1 (stereo not given) ?
Outgoing: Met

Incoming: Okay, and "CCn1c2ccc(O)cc2c2c(C)c3c[n+](C)ccc3c(C)c21" ?
Outgoing: Not met

Incoming: Okay, and CC(C)=CCC/C(C)=C/CC/C(C)=C/CC/C=C(\C)CC/C=C(\C)CCC(=O)Nc1ccn(C2OC(CO)C(O)C2(F)F)c(=O)n1 (stereo not given) ?
Outgoing: Not met

Incoming: Okay, and Nc1ncnc2c1ncn2C1(CO)OCC(O)C(O)C1O (stereo not given) ?
Outgoing: Not met

Incoming: Okay, and COc1cccc(C2C(C#N)=C(N)Oc3cc(N)ccc32)c1 (stereo not given) ?
Outgoing: Met

Incoming: Okay, and "CCn1c(SCc2ccc(C)cc2)nnc1-c1nn(-c2ccc(Cl)cc2Cl)c(-c2ccc(Cl)cc2)c1C" ?
Outgoing: Met

Incoming: Okay, and "CC(=O)Nc1ccc(CC[C@H]2CCC/C=C/[C@@H]3C[C@H](O)C[C@H]3[C@H](O)/C=C/C(=O)O2)cc1" ?
Outgoing: Met

Incoming: Okay, and "Cc1[nH]c2ccccc2c1/C=N/Nc1ncnc2sc3c(c12)CCN(CC(=O)OC(C)(C)C)C3" ?
Outgoing: Not met

Incoming: Okay, and "COC(=O)c1cc2oc(/C=C3/SC(=S)N(N)C3=O)cc2n1Cc1ccccc1" ?
Outgoing: Met

Incoming: Okay, and "CCOC(=O)c1cocc1C(=O)O" ?
Outgoing: Not met

Incoming: Okay, and "COc1cc(C(=O)/C=C/c2c[nH]c3ccccc23)cc(OC)c1OC" ?
Outgoing: Met

Incoming: Okay, and "O=C1c2c(c3c4ccccc4n(CCCCCCN4CCOCC4)c3c3[nH]c4ccccc4c23)C(=O)N1O" ?
Outgoing: Met

Incoming: Okay, and "O=C1/C(=C/c2cccc(F)c2)Cc2ccccc21" ?
Outgoing: Not met

Incoming: Okay, and "COc1cc(NC(=O)C2=C(N3CCOCC3)/C(=C/c3ccc(Cl)cc3)CC2)cc(OC)c1OC" ?
Outgoing: Not met

---

tested on: DU-145 prostate; assay: NCI-60 one-dose screen, 48 h (100 = growth as untreated, 0 = no growth, -100 = all killed); details: 10 µM
The panel holds about 83,000 compounds, 20% with a hit somewhere; the sample as a whole holds those more often.
measurementKind: growth (%)
Write the number in % without appending the unit.

Incoming: Using the record for "CC(=O)OC/C=C(/C)C[P+](c1ccccc1)(c1ccccc1)c1ccccc1" , report its growth.
Outgoing: 58.3

Incoming: Okay, and "CCn1c(CSc2nc3ccccc3c(=O)n2CCc2ccccc2)n[nH]c1=S" ?
Outgoing: 113

Incoming: Okay, and "COc1cc(-c2nn(-c3ccc(NC(=O)NCCCNC(=O)c4ccccc4)cc3)cc2-c2ccncc2)ccc1Cl" ?
Outgoing: 20.6

Incoming: Okay, and COC(=O)C1OC1c1cc([N+](=O)[O-])ccc1OC (stereo unspecified) ?
Outgoing: 109

Incoming: Okay, and N#CC1=C(N)Oc2cc(N)ccc2C1c1cccnc1 (stereo unspecified) ?
Outgoing: 104

Incoming: Okay, and C/C=C/C1=CN2C(=O)c3cc(OC4OC(C)C(NC)C(C)(O)C4O)c(C)c(O)c3N=C[C@@H]2C1 (stereo partly specified) ?
Outgoing: -12.7

Incoming: Okay, and "COc1cc2cc(Oc3ccc(NC(=O)Nc4ccc(Cl)c(Cl)c4)cc3)c(C)nc2cc1OC" ?
Outgoing: 24.8

Incoming: Okay, and "Cc1cc(=O)n2nnc3cc(C(F)(F)F)ccc3n12" ?
Outgoing: 105

Incoming: Okay, and "CCOC(=O)c1cc(C(=O)c2ccc(Cl)cc2)n2ccc(-c3cc[n+](CC(=O)c4ccc(OC)cc4)cc3)cc12" ?
Outgoing: 30.3

Incoming: Okay, and "COc1cc(-c2nn(-c3cccc(NC(=O)CCN4CCN(c5ccccc5)CC4)c3)cc2-c2ccncc2)ccc1Cl" ?
Outgoing: 30.8

Incoming: Okay, and "COc1ccc(-c2cc(-c3ccc(Cl)cc3)nc(SCCCC(=O)NO)n2)cc1" ?
Outgoing: 9.82

Incoming: Okay, and "O=C(O)c1cc([N+](=O)[O-])ccc1Oc1ccccc1" ?
Outgoing: 104

Incoming: Okay, and "CNC(=O)c1cn(C2CC2)c2cc(N3CCN(C(=O)c4cc(OC)c(OC)c(OC)c4)CC3)c(F)cc2c1=O" ?
Outgoing: 104

Incoming: Okay, and "C[C@H]1[C@H](OC(=O)CCC(=O)O)O[C@@H]2O[C@]3(C)CC[C@H]4[C@H](C)CC[C@@H]1[C@@]24OO3" ?
Outgoing: 82.7

Incoming: Okay, and "O=C(N/N=C/c1cc([N+](=O)[O-])ccc1O)c1cccc2ccccc12" ?
Outgoing: 45.2

Incoming: Okay, and C=C1CCC2(C#N)[C@H]3[C@H](CC[C@@H]2C)[C@@H](C)C[C@@H](CC(C)(C)NC(=O)CN2CCC2=O)[C@H]13 (stereo partly specified) ?
Outgoing: 89.5

Incoming: Okay, and "COc1ccc(N=Nc2cc(OC)c(OC)c(OC)c2)cc1" ?
Outgoing: 97.3

Incoming: Okay, and NC(CSC(c1ccccc1)(c1ccccc1)c1cccc2ccccc12)C(=O)O (stereo unspecified) ?
Outgoing: 106

Incoming: Okay, and "CN1C(C(=O)Nc2ccccn2)=C(O)c2sc(Cl)cc2S1(=O)=O" ?
Outgoing: 106

Incoming: Okay, and "N#Cc1cnn(C(=O)c2nn(-c3ccc(Cl)cc3)cc2O)c1N" ?
Outgoing: 34.9

Incoming: Okay, and "COc1ccc(Cc2cnc(N)nc2N)cc1OC" ?
Outgoing: 114

Incoming: Okay, and "Oc1cccc(-c2nc3sccn3c2-c2ccncn2)c1" ?
Outgoing: 106

Incoming: Okay, and "Fc1ccc2[nH]cc(-c3nc(-c4ccsc4)cs3)c2c1" ?
Outgoing: 108

Incoming: Okay, and "N=C1S/C(=C/c2ccc(-c3ccc4c(c3)C(=O)NC4=O)o2)C(=O)N1c1ccc(Br)cc1" ?
Outgoing: 27.8

Incoming: Okay, and "CC(=O)Nc1cc2c(cc1Cl)Cc1cc(Cl)ccc1-2" ?
Outgoing: 106

Incoming: Okay, and "N#Cc1c(-c2ccc(Cl)cc2)n(O)c2ccccc12" ?
Outgoing: 25.4

Incoming: Okay, and "CN(C)CCCOc1ccccc1NC1=C(Cl)C(=O)C(Nc2ccccc2OCCCN(C)C)=C(Cl)C1=O" ?
Outgoing: -97.2

Incoming: Okay, and "CS(=O)(=O)c1nccc(-c2c(-c3cccc(OCCN4CCOCC4)c3)nc3sccn23)n1" ?
Outgoing: 91.9

Incoming: Okay, and CCOC(=O)C1=CSC2=NC3=C(CCC/C3=C\c3cc(OC)c(OC)c(OC)c3)C(c3cc(OC)c(OC)c(OC)c3)N12 (stereo unspecified) ?
Outgoing: 8.85

Incoming: Okay, and "NS(=O)(=O)c1ccc(Br)cc1" ?
Outgoing: 114

Incoming: Okay, and "O=C(CCl)Nc1ccc(Cc2ccc(NC(=O)CCl)cc2)cc1" ?
Outgoing: 32.3

Incoming: Okay, and COc1cccc(C2C(C#N)=C(N)Oc3cc(N)ccc32)c1 (stereo unspecified) ?
Outgoing: 10.6

Incoming: Okay, and "COc1cc2c3c(n([C@@H]4CCOC4)c(=O)c2cc1OC)-c1cc2c(cc1C3=O)OCO2" ?
Outgoing: 24.2

Incoming: Okay, and "COc1cc(-c2ccc[nH]2)[nH]c1/C=C1\N=C(C)C(C(=O)NC(C)C)=C1C" ?
Outgoing: 21.2

Incoming: Okay, and "O=C(CCCSc1nc(-c2ccc(Cl)cc2)cc(-c2ccc(Cl)cc2)n1)NO" ?
Outgoing: 15.1

Incoming: Okay, and "COc1ccc(Nc2cnc3cc(NS(=O)(=O)c4ccc(C)cc4)ccc3n2)cc1" ?
Outgoing: 102

Incoming: Okay, and OC(CCN1CCCC1)(c1ccccc1)C1CCCCC1 (stereo unspecified) ?
Outgoing: 108

Incoming: Okay, and "COC(=O)c1c[nH]c2cc(OC(C)C)c(OC(C)C)cc2c1=O" ?
Outgoing: 110

Incoming: Okay, and "CN1CCc2c(sc3nc4n(-c5ccc(Cl)cc5)c(=O)[nH]n4c(=O)c23)C1" ?
Outgoing: 103

Incoming: Okay, and "Nc1nc(Cn2c(-c3nonc3N)nc3ccccc32)nc(N2CCCCC2)n1" ?
Outgoing: 99

Incoming: Okay, and CC1/C=C/C=C/C=C/C=C/C=C/C=C/C=C/C(O[C@@H]2O[C@H](C)[C@H](O)[C@@H](O)[C@@H]2N)CC(O)C(C(=O)O)C(O)CC(=O)CC(O)CC(O)CC(O)CC(=O)CCCC(=O)CC(=O)OC1C(C)CC(C)C(O)CC(=O)c1ccc(N)cc1 (stereo partly specified) ?
Outgoing: -98.7

Ref: PubChem BioAssay (NCI)
